Where do the numbers come from? From paper PMC4197335.

Molecular target: GADD45β/MKK7 complex (Homo sapiens, UniProt O14733)
Construct: Full-length human (h)MKK7 was expressed as a protein fused to an N-terminal GST tag (GST-MKK7); made in house
Sequence (O14733 1-419): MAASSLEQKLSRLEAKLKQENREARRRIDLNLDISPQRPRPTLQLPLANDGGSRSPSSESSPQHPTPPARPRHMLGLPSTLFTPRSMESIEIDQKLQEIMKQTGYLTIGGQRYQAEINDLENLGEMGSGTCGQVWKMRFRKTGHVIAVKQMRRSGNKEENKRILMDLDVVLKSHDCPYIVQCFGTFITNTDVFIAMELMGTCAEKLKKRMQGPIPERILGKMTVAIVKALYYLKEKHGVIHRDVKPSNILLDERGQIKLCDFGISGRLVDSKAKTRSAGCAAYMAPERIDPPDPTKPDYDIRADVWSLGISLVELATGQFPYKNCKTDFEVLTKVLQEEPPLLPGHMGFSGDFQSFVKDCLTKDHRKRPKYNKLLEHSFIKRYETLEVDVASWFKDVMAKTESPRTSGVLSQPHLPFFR
Experiment: ELISA GADD45β/MKK7 competition assay
Format: binding
Details: Table S2; peptide at 42 nM; read-out: % inhibition (ELISA)
Where a SMILES comes first, the peptide text is derived from it.
result-type: inhibition at 0.042 µM (%)
Report as a plain number; the unit % is understood.

>  <compound>
CC(=O)N[C@@H](Cc1c[nH]c2ccccc12)C(=O)N[C@@H](CCC(=O)O)C(=O)N[C@@H](CCCNC(=N)N)C(=O)N[C@@H](Cc1c[nH]c2ccccc12)C(N)=O [Ac-WERW-NH2] (Ac-WERW-NH2)

>  <units-symbol>
%

>  <reported-value>
64

$$$$
>  <compound>
CC(=O)N[C@@H](Cc1c[nH]c2ccccc12)C(=O)N[C@@H](CCC(=O)O)C(=O)N[C@@H](CCCCN)C(=O)N[C@@H](Cc1ccccc1)C(N)=O [Ac-WEKF-NH2] (Ac-WEKF-NH2)

>  <units-symbol>
%

>  <reported-value>
65

$$$$
>  <compound>
CC(=O)N[C@@H](Cc1ccc(O)cc1)C(=O)N[C@@H](CCC(=O)O)C(=O)N[C@@H](CCCCN)C(=O)N[C@@H](Cc1ccccc1)C(N)=O [Ac-YEKF-NH2] (Ac-YEKF-NH2)

>  <units-symbol>
%

>  <reported-value>
64

$$$$
>  <compound>
CC(=O)N[C@@H](Cc1c[nH]c2ccccc12)C(=O)N[C@@H](CCC(=O)O)C(=O)N[C@@H](Cc1c[nH]cn1)C(=O)N[C@@H](Cc1c[nH]c2ccccc12)C(N)=O [Ac-WEHW-NH2] (Ac-WEHW-NH2)

>  <units-symbol>
%

>  <reported-value>
75

$$$$

Attention now shifts to the item below.
Bench note: what inhibition at 0.042 µM did CC(=O)N[C@@H](Cc1c[nH]c2ccccc12)C(=O)N[C@@H](CC(=O)O)C(=O)N[C@@H](CCCNC(=N)N)C(=O)N[C@@H](Cc1c[nH]c2ccccc12)C(N)=O [Ac-WDRW-NH2] (Ac-WDRW-NH2) show?
93
